- assayed.system: Protein cereblon/ALK tyrosine kinase receptor/Nucleophosmin (Homo sapiens) (UniProt Q9UM73+P06748+Q96SW2)
- Sequence (P06748 whole entry partner, the tested form may be a part): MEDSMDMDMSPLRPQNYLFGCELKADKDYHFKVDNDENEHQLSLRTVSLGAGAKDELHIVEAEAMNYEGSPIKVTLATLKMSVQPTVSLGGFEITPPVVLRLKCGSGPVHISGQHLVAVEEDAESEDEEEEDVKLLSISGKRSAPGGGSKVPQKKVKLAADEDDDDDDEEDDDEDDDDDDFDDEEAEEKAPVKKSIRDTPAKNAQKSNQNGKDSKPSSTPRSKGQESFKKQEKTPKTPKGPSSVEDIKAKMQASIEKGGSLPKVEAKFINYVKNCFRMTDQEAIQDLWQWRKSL
- Sequence (Q96SW2 whole entry partner, the tested form may be a part): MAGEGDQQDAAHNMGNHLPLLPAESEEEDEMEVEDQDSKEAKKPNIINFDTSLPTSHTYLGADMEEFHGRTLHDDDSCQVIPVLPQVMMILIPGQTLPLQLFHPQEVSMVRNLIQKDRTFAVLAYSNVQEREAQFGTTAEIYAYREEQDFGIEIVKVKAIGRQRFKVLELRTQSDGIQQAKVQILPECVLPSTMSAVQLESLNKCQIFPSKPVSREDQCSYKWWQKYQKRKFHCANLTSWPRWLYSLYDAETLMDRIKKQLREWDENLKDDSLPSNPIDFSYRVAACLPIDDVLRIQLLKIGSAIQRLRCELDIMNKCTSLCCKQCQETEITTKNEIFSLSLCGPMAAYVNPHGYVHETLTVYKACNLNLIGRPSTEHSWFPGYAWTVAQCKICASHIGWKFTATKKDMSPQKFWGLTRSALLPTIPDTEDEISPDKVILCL
- Sequence (Q9UM73 19-1620 limits assumed): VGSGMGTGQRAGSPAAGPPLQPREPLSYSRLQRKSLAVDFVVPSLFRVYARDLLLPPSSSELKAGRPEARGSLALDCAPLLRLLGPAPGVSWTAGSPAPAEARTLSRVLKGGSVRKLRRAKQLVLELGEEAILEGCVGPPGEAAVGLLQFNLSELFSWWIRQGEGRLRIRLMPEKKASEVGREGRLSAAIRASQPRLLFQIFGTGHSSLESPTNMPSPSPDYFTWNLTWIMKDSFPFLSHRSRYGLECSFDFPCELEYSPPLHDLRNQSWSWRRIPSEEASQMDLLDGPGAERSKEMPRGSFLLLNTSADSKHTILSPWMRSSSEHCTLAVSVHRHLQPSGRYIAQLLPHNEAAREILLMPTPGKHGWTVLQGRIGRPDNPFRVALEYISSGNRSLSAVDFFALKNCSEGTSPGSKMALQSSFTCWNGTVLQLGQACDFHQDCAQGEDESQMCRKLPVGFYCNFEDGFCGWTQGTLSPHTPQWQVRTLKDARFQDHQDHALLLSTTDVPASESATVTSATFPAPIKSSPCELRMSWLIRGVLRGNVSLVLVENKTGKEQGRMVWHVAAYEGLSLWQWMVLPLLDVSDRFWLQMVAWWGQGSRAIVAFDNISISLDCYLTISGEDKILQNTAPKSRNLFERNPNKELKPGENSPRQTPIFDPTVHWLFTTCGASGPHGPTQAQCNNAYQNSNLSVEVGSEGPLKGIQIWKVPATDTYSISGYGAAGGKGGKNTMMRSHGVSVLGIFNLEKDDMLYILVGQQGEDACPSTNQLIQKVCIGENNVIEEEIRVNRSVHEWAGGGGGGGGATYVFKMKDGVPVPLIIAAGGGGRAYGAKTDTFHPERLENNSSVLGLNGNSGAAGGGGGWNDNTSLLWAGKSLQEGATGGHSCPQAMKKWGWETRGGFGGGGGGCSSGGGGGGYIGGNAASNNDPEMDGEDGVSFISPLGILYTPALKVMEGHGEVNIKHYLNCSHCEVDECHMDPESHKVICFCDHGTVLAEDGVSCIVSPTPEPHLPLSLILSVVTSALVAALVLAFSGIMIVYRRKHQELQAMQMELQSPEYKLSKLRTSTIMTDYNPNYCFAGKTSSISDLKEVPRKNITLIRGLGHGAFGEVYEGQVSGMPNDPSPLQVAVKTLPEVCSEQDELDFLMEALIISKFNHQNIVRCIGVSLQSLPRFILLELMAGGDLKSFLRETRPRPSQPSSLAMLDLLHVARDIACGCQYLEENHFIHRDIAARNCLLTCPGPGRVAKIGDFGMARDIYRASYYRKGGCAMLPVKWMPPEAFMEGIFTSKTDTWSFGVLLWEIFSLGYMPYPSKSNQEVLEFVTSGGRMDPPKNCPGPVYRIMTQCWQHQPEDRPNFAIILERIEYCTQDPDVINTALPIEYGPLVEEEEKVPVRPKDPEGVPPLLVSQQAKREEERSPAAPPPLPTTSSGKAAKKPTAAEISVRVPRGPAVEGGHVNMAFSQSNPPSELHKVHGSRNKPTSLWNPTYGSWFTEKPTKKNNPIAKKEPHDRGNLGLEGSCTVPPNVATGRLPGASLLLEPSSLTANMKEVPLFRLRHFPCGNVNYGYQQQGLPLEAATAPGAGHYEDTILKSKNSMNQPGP
- measurement.protocol: Protac activity at CRBN/NPM-ALK in human KARPAS-299 cells assessed as induction of NPM-ALK fusion protein degradation at 0.1 uM incubated for 24 hrs by Western blot analysis relative to control
- Type: cell-based
measured.endpoint: Activity (%)
Give bare numbers, in %.

Hello, I would appreciate it if you could give Activity for each entry below.
1. CCc1cc2c(cc1N1CCN(CC(=O)NCCCCCCNc3cccc4c3C(=O)N(C3CCC(=O)NC3=O)C4=O)CC1)C(C)(C)c1[nH]c3cc(C#N)ccc3c1C2=O (centres undefined)
2. CCc1cc2c(cc1N1CCN(C(=O)CCCCCNc3cccc4c3C(=O)N(C3CCC(=O)NC3=O)C4=O)CC1)C(C)(C)c1[nH]c3cc(C#N)ccc3c1C2=O (centres undefined)
3. CCc1cc2c(cc1N1CCN(C(=O)CCCNc3cccc4c3C(=O)N(C3CCC(=O)NC3=O)C4=O)CC1)C(C)(C)c1[nH]c3cc(C#N)ccc3c1C2=O (centres undefined)
4. CCc1cc2c(cc1N1CCN(CC(=O)NCCNc3cccc4c3C(=O)N(C3CCC(=O)NC3=O)C4=O)CC1)C(C)(C)c1[nH]c3cc(C#N)ccc3c1C2=O (centres undefined)

Response:
66.5
55.1
77.4
68.3
